- Assay text: CSF study, plasma and CSF pharmacokinetics
- Type: in vivo
- Cond: male, human, plasma, oral, 35 mg, 35 mg b.i.d, Day 1, mean (CV%)
Property: Cmax (ng/mL)
Give bare numbers, in ng/mL.

Please give the measured Cmax for this molecule: O=C(c1csc(-c2cn[nH]c2)c1)N1C2CCC1CC(O)(c1ncccn1)C2 (stereo not shown) [compound 4]
235

----------
- Assay text: Single ascending dose study, pharmacokinetics
- Type: in vivo
- Cond: both sexes, plasma; human, single oral dose 25 mg; mean (CV%)
Property: Cmax (ng/mL)
Give bare numbers, in ng/mL.

Please give the measured Cmax for this molecule: O=C(c1csc(-c2cn[nH]c2)c1)N1C2CCC1CC(O)(c1ncccn1)C2 (stereo not shown)
278
